biological target: T1, recombinant human PCSK9-His protein (Immunogen A) (human, UniProt Q8NBP7 31-692, limits assumed, biotinylated in the ELISA assays); test: ELISA of PCSK9 binding to LDLR ECD; antibody 0.32 nM
T1 construct: also called hPCSK9-His; His-tagged hPCSK9; not shown: His tag
Record form. Attribute: OD450 nm. Fill in for each entry.
Kindly format the answer as number then unit.

Ask: Fill in: OD450 nm of 152G2F7, fully human anti-PCSK9 antibody (antibody, human IgG1, V domains shown) VH: EVQLVESGGGLVQPGGSLRLSCAASEFTFGGYWMTWVRQAPGKGLEWVANIKQDGSEKYYVDSVKGRFTISRDNAKNSLYLHMNSLRAEDTAVYYCARDRTTMIRGVSLYYYYYGMDVWGQGTAVTVSS VL: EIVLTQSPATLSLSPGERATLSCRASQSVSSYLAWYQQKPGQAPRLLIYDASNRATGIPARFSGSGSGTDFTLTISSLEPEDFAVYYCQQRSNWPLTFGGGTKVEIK is ___
Reply: 2.31 OD450 nm

Ask: Fill in: OD450 nm of 139G1C5, fully human anti-PCSK9 antibody (antibody, human IgG1, V domains shown) VH: QVQLQESGPGLVKPSGTLSLTCAVSGGSISRNNWWSWVRQPPGKGLEWIGEIYHSGSTNYNPSLKSRVTISVDKSKNQFSLKLSSVTAADTAVYYCARDLLGIGLDYWGQGTLVTVSS VL: EFVLTQSPATLSLSPGERAILSCRASQSFSSYIAWYQQKPGQAPRLLIYDASNRATGIPARFSGSGSGTDFTLTISSLEPEDFAVYYCQQHSNWMYTFGQGTKLEIK is ___
Reply: 2.28 OD450 nm

Ask: Fill in: OD450 nm of 74C10A8, fully human anti-PCSK9 antibody (antibody, human IgG1, V domains shown) VH: QVQLQESGPGLVKPSETLSLTCSVSGGSINTYYWSWIRQPPGKGLEWIGYIYYSGSTNYNPSLKSRVTISVDTSKNQFSLKLTSVTAADTAVYYCARERFTMVRGVMMDYYYYGMDVWGQGTTVTVSS VL: DIQLTQSPSFLSASVGDRVTITCRASQGISSYLAWYQQKPGKAPKLLIYAASTLQSGVPSRFSGSGSGTEFTLTISSLQPEDFATYYCQQLNSYPRTFGQGTKVEIK is ___
Reply: 2.32 OD450 nm

Ask: Fill in: OD450 nm of 76A1B11, fully human anti-PCSK9 antibody (antibody, human IgG1, V domains shown) VH: QVQLVESGGGVVQPGRSLRLSCAATGFTFSIYGMHWVRQAPGKGLEWVAVIWYDGSNKYYADSVKGRFIISRDNSKNTLYLQMNSLRVEDTAVYYCVSDYFGSGNSYYYYGMDVWGQGTTVTVSS VL: DIQMTQSPSSLSASVGDRVTITCRASQVISNYLAWYQQKPGKVPKLLIYTASTLQSGVPSRFSGSGSGADFTLTISSLQPEDVATYYCQKYNSAPYTFGQGTKLEIK is ___
Reply: 2.31 OD450 nm

Where do the numbers come from? From patent US20180355059A1.
